A collection of compounds and their measured relative viability
tested on: NCI-H647; assay: relative viability (nuclei count vs DMSO), 5 days (fraction); higher = more cells survive; settings: first compound 0.04 µM
value_type: relative viability

compound: Clc1ccc(Nc2nnc(Cc3ccncc3)c3ccccc23)cc1 [Vatalanib] + CCNC(=O)c1noc(-c2cc(C(C)C)c(O)cc2O)c1-c1ccc(CN2CCOCC2)cc1 [Luminespib] (partner 0.01 µM)
target_entity: NCI-H647
value_type: relative viability
reading: 0.128
//
compound: COc1cc(N2CCC(C(N)=O)CC2)ccc1Nc1nc(N)c(Cl)c(Nc2ccccc2S(=O)(=O)C(C)C)n1 [HG-5-88-01] + CC1(C)CCC(c2ccc(Cl)cc2)=C(CN2CCN(c3ccc(C(=O)NS(=O)(=O)c4ccc(N[C@H](CCN5CCOCC5)CSc5ccccc5)c(S(=O)(=O)C(F)(F)F)c4)cc3)CC2)C1 [Navitoclax] (partner 0.5 µM)
target_entity: NCI-H647
value_type: relative viability
reading: 1.19
//
compound: COc1cc(N2CCC(C(N)=O)CC2)ccc1Nc1nc(N)c(Cl)c(Nc2ccccc2S(=O)(=O)C(C)C)n1 [HG-5-88-01] + Cc1cc(Nc2cc(N3CCN(C)CC3)nc(Sc3ccc(NC(=O)C4CC4)cc3)n2)n[nH]1 [Tozasertib] (partner 0.1 µM)
target_entity: NCI-H647
value_type: relative viability
reading: 0.236
//
compound: COc1cc(N2CCC(C(N)=O)CC2)ccc1Nc1nc(N)c(Cl)c(Nc2ccccc2S(=O)(=O)C(C)C)n1 [HG-5-88-01] + Cc1nc(Nc2ncc(C(=O)Nc3c(C)cccc3Cl)s2)cc(N2CCN(CCO)CC2)n1 [Dasatinib] (partner 0.075 µM)
target_entity: NCI-H647
value_type: relative viability
reading: 0.162

Hey, just so you know, these numbers are from the supplement of paper PMC10307832.
